tested-on: human α2δ-1 subunit of Cav2.2 calcium channel (Homo sapiens (Human), UniProt P54289)
Sequence (P54289 25-1103): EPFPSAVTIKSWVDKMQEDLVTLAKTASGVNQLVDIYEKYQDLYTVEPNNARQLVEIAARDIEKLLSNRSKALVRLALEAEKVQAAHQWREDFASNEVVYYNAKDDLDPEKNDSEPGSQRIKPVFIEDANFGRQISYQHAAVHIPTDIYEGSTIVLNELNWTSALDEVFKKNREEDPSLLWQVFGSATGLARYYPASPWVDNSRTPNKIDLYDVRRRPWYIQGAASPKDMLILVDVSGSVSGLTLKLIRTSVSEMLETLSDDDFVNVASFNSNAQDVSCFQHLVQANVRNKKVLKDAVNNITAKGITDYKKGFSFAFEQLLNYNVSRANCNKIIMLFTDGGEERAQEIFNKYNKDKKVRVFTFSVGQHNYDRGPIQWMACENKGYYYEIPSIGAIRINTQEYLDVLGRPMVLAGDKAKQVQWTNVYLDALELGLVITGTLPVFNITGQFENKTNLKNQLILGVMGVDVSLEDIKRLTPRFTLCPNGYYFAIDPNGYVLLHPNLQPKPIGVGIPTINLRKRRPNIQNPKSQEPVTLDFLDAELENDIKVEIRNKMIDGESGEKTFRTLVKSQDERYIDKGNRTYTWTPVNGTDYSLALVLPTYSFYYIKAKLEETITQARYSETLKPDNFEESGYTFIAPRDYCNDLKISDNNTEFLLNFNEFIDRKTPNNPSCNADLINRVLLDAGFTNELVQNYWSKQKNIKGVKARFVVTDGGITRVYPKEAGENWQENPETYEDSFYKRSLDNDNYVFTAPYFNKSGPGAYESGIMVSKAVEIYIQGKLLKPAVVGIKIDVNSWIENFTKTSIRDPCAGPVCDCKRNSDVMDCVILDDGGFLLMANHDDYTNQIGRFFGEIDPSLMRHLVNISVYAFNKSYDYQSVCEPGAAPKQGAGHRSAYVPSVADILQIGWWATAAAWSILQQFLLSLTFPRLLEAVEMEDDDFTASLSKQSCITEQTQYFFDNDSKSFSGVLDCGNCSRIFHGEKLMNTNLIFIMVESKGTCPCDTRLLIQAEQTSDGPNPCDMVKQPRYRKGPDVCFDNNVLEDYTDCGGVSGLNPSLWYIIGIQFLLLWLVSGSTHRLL
method-summary: Binding assay to human α2δ-1 subunit of Cav2.2 calcium channel ([3H]-Gabapentin)
cond: Table 1, human α2δ-1 enriched membranes, read-out: Ki (nM) alpha2delta Hum
reported-property: Ki

Fill in: Ki of CCNCC[C@H](Oc1cccc2cnccc12)c1cccs1 [Example 92] is ___
≥ 3000 nM

What Ki value was documented for this compound, CNCC[C@@H](Oc1cnc2ccccc2c1)c1cccs1 [Example 94] ?
≥ 3000 nM

Reported Ki for CNCCC(Oc1cccc2ncccc12)c1ccsc1 (stereo not drawn) [Example 57] : what is it?
100 to 500 nM

---
Fill in the blank: the reported Ki of CN(C)CCC(Oc1nccc2ccccc12)c1cccs1 (stereo not drawn) [Example 8] is ____.
≥ 3000 nM

Which measured Ki value corresponds to CNCCC(Oc1cccc2cnccc12)c1nccs1 (stereo not drawn) [Example 71] ?
500 to 3000 nM

Look up Ki for this compound: CNCC[C@@H](Oc1cccc2nc(C)cc(C)c12)c1cccs1 [Example 66]
< 100 nM

Every entry's value here was drawn from patent US10941138B2.
